# TGI annotations
# Test system: MOLT-4 leukemia
# assay-notes: NCI tumour cell line growth inhibition, 48 h

Examples with their reported TGI follow.
{"compound": "O=C(O)c1ccc(C2SCc3nc4ccccc4n32)cc1 (stereo unspecified)", "endpoint-label": "TGI", "value": "> 100 µM"}
{"compound": "O=C(C/C(=N/O)c1cc(-c2ccccc2)no1)c1ccccc1", "endpoint-label": "TGI", "value": "> 100 µM"}
{"compound": "CCOC(=O)c1[nH]cc(C)c1-c1ccc2c(-c3ccccc3)nc3ccccc3n12", "endpoint-label": "TGI", "value": "9.25 µM"}
{"compound": "C=C[C@]1(C)CCC2=C(CCC3C2(C)CCC[C@@]3(C)COC(C)=O)C1 (stereo partly specified)", "endpoint-label": "TGI", "value": "30.3 µM"}
{"compound": "Cc1cc(C(C)(C)C)cc(CNC2CCCCC2)c1O", "endpoint-label": "TGI", "value": "92.4 µM"}

Continue with the next compound.
Q) Endpoint output: TGI of "Cc1c(O)c2c(c(O)c1Br)C(=O)C=CC2=O" . Value?
A) 0.101 µM

###

Property: TGI; scope: individual compounds
# System: NCI-H522 lung
# assay-notes: NCI tumour cell line growth inhibition, 48 h
Please state the figure in µM; there is no need to write the unit.

Sample records with TGI:
{"compound": "O=Cc1ccc(CCl)cc1", "TGI [µM]": 35.9}
{"compound": "CCOC(=O)C(C(=S)SC)c1nn2c(=O)cc(C)nc2s1 (centres undefined)", "TGI [µM]": 42.5}
{"compound": "COc1cc2c(cc1Nc1nc(Nc3cccc(F)c3C(N)=O)c3cc[nH]c3n1)N(C(=O)CN1CCN(C(C)C)CC1)CC2", "TGI [µM]": 7.69}
{"compound": "CC(=O)C1=C(C)N(c2ccc(C)cc2)C2(O)C3=C(C(=O)c4ccccc4C3=O)C(O)=CC12Cl (centres undefined)", "TGI [µM]": 33.2}
{"compound": "CN(Cc1cc(Cl)cc(Cl)c1O)Cc1c(O)ccc2ccccc12", "TGI [µM]": 29.6}
{"compound": "O=C1C=C(OCCCCl)C(=O)c2c(O)ccc(O)c21", "TGI [µM]": 4.26}
{"compound": "O=C1c2cccc(NCCN=Cc3ccccc3O)c2C(=O)c2c(NCCN=Cc3ccccc3O)cccc21", "TGI [µM]": 1.38}

Okay, now this compound:
Q) Could you share which TGI value was measured for CCN(CC)C1CCC(Nc2c(C(C)=O)cnc3ccc(-c4ccc(O)c(Cl)c4)cc23)CC1 (centres undefined) ?
A) 1.71

###

# Lookup of reported TGI keyed by entry
# Tested on: MCF7 breast
# assay-notes: NCI tumour cell line growth inhibition, 48 h

Examples from the recorded data:
{"molecule": "C[C@@H](NC(=O)c1ccc(CNC(=O)/C=C/c2cccc(Oc3ccccc3)c2)cc1)c1ccccc1", "value": "> 100 µM"}
{"molecule": "NC12CCC(CC1=O)C2 (stereo not drawn)", "value": "> 100 µM"}
{"molecule": "C[C@@H](Oc1ccc(C(=O)NS(=O)(=O)C(C)(C)C)cc1C(F)(F)F)c1ccc(Oc2ccccc2)cn1", "value": "13.6 µM"}
{"molecule": "COc1ccc2nc3ccc(OC)cc3c(SCc3ccccc3)c2c1", "value": "> 100 µM"}
{"molecule": "CCOC(=O)c1[nH]cc(C)c1-c1ccc2c(-c3ccccc3)nc3ccccc3n12", "value": "14.3 µM"}

Q) Record request: TGI value, item CCCCCCCCCCCCCCCCC(=O)O.CCCCCCCCCCCCCCCCCC(=O)O.CCCCCCCCCCCCCCCCCC(=O)O.CCCCCCCCCCCCCCCCCC(=O)O.CCCCCCCCCCCCCCCCCC(=O)O.CO[CH-]OC12COC1CC(O)C1(C)C(O)C(OC(C)O)C3=C(C)C(OC(=O)C(O)C([NH-])c4ccccc4)CC(O)(C(OC(=O)c4ccccc4)C21)C3(C)C.[Cu+].[Zn].[Zn].[Zn].[Zn].[Zn] (stereo not drawn)
A) 3.83 µM

Q) Which value of TGI has been reported for O=C(O)c1ccc(C2SCc3nc4ccccc4n32)cc1 (stereo not drawn) in the records?
A) > 100 µM

Q) GET /values?readout=TGI&item= "NCOC(=O)Cc1ccc(Br)cc1"
A) > 100 µM
